Assay: Hydrolytic stability in KPi buffer without thiol (NMR)
Format: physicochemical
Conditions: pH 7.0; over 12 hours; 50 mM KPi; footnote a: crashing out of solution, no degradation product
Protocol: NMR studies: rate constant determination and hydrolytic stability. […] transferred to the NMR instrument for acquisition. 1H spectra (16 scans) were recorded every 10 minutes under water suppression conditions. Following acquisition, spectra were analysed using […]
# label = rule met if % degradation < 20% else rule not met

CS(=O)(=O)c1ncc(I)cn1: rule met
CS(=O)(=O)c1nccc(C(F)(F)F)n1: rule met
CS(=O)(=O)c1ncc(C(F)(F)F)cn1: rule not met
Cc1cc(C)c([N+](=O)[O-])c(S(C)(=O)=O)n1 [compound 12, reference compound]: rule met

Q: Item O=[N+]([O-])c1ccc(S(=O)(=O)c2ncccn2)cc1 : % degradation beneath 20%, strictly?
A: rule not met

Q: Now the compound CS(=O)(=O)c1ncc(Br)cn1
A: rule met

Q: Now the compound CS(=O)(=O)c1ncc(C(=O)O)cn1
A: rule met

Q: Now the compound O=S(=O)(c1ccccc1)c1ncccn1
A: rule met

Q: Now the compound O=S(=O)(Oc1c(F)c(F)c(F)c(F)c1F)c1ncccn1
A: rule not met

###

test: Hydrolytic stability in KPi buffer without thiol (NMR); type: physicochemical; conditions: pH 8.2; over 12 hours; 50 mM KPi; footnote a: crashing out of solution, no degradation product
Measured Endpoint: % degradation

Study these solved cases before continuing.
COC(=O)c1cnc(S(C)(=O)=O)nc1: 100%
CS(=O)(=O)c1nc2ccccc2s1 [compound 9, 2-Methysulfonylbenzothiazole, reference compound]: < 5%
CS(=O)(=O)c1ncccn1: < 5%
O=S(=O)(NCc1ccccc1)c1ncccn1: < 5%

// moving on: another record for % degradation
Q: Tell me the measured % degradation of CS(=O)(=O)c1nccc(C(=O)O)n1 , please.
A: < 5%

###

target: FGE-C341S (Homo sapiens, UniProt Q8NBK3, C341S); construct: His7 (C); made in house; host or cells: High Five insect cells (baculovirus, pAcGP67B-His7); assay: Differential scanning fluorimetry (DSF); type: binding; conditions: 100 μM compound; 10 µM FGE; read-out: Protein thermal stability ΔTm
Sequence (Q8NBK3 34-374 C341S): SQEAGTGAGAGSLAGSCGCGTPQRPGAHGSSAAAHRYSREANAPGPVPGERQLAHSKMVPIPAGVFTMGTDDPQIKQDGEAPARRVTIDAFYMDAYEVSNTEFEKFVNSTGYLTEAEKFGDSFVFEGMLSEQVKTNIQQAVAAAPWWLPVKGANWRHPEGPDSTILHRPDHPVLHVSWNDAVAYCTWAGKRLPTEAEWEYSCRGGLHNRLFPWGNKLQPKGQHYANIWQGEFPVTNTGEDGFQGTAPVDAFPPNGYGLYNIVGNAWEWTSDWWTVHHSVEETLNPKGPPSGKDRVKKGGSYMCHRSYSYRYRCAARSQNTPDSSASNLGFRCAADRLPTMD
Property: ΔTm at 100 µM; scope: individual compounds
Report only the number, with the unit °C understood.

Study these solved cases before continuing.
CS(=O)(=O)c1nccc(C(F)(F)F)n1 [4l]: -0.6
CCCCS(=O)(=O)c1ncccn1 [5c]: -0.4
CS(=O)(=O)c1nccc(N)n1 [4g]: -0.4
O=S(=O)(c1ccccc1)c1ncccn1 [5d]: -0.4
Nc1ccc(S(=O)(=O)c2ncccn2)cc1 [5b]: -0.4

// moving on: another record for ΔTm at 100 µM
Q: Tell me the measured ΔTm at 100 µM of CS(=O)(=O)c1ncccn1 [4q, 2-methylsulfonylpyrimidine] , please.
A: -0.6

###

assay: GSH arylation rate constants (NMR; UV-vis for fast warheads); assay type: physicochemical; details: pH 7.0; ratio to rate constant of 4q; acceleration (+) or deceleration (-)
Measured Endpoint: k change (vs ref) (fold)
Report only the number, with the unit fold understood.

Study these solved cases before continuing.
Cc1cc(C)c([N+](=O)[O-])c(S(C)(=O)=O)n1 [compound 12, reference compound]: -9
CS(=O)(=O)c1nccc(C(=O)O)n1: -5

// moving on: another record for k change (vs ref)
Q: Tell me the measured k change (vs ref) of COc1ccnc(S(C)(=O)=O)n1 , please.
A: -6

###

assay: GSH arylation rate constants (NMR; UV-vis for fast warheads); type: physicochemical; settings: relative to 4q
Property: k/kref; scope: individual compounds
API note: the answer field is a bare number with no unit suffix.

O=[N+]([O-])c1ccc(S(=O)(=O)c2ncccn2)cc1: 12

// moving on: another record for k/kref
Q: Tell me the measured k/kref of Cc1cnc(S(C)(=O)=O)nc1 , please.
A: 0.068

###

experiment: Solubility in KPi buffer by NMR with TMSP internal standard; details: 50 mM KPi aqueous buffer, pH 7, aqueous with cosolvent or surfactant or cyclodextrin, kinetic from dmso stock
Measured Endpoint: solubility

Study these solved cases before continuing.
COC(=O)c1cnc(S(C)(=O)=O)nc1 [4y]: ≥ 2000 µM
CS(=O)(=O)c1ncc(-c2ccccc2)cn1 [4p]: < 2000 µM
CS(=O)(=O)c1ncc(C(F)(F)F)cn1 [4x]: ≥ 2000 µM

Q: Tell me the measured solubility of Nc1ccc(S(=O)(=O)c2ncccn2)cc1 [5b] , please.
A: ≥ 2000 µM

Q: Now the compound O=S(=O)(Oc1c(F)c(F)c(F)c(F)c1F)c1ncccn1 [5h]
A: 100 µM

###

Assay: GSH arylation rate constants (NMR; UV-vis for fast warheads)
Type: physicochemical
Settings: pH 7.0; ratio to rate constant of 4q; acceleration (+) or deceleration (-)
Protocol: We employed nuclear magnetic resonance (NMR) and UV–vis to quantify the reactivity of our 2-SP derivatives and other representative electrophiles (Figure 2) against cysteine. […] It simultaneously provided a direct readout on reaction specificity and hydrolytic stability of the warhead. […] Figure 3 In vitro determination of electrophilic reactivity of compounds. […] All rate constants were calculated as an average of at least two independent measurements. […]
Measured Endpoint: k change (vs ref)

CS(=O)(=O)c1nccc(N)n1: ≈
CS(=O)(=O)c1nc2ccc([N+](=O)[O-])cc2s1 [compound 10, reference compound]: +44,000 fold
CS(=O)(=O)c1ncc(C(=O)O)cn1: +1,200 fold

###

Property: melting point; scope: individual compounds

Study these solved cases before continuing.
Nc1ccc(S(=O)(=O)c2ncccn2)cc1: 200 to 201 °C
O=S(=O)(CC(F)(F)F)c1ncccn1: 91 to 92 °C

// moving on: another record for melting point
Q: Tell me the measured melting point of CS(=O)(=O)c1nccc(C(=O)O)n1 , please.
A: 115 to 118 °C

###

Property: k/kref; scope: individual compounds
experiment: GSH arylation rate constants (NMR; UV-vis for fast warheads); type: physicochemical; conditions: relative to 4q
API note: the answer field is a bare number with no unit suffix.

Study these solved cases before continuing.
O=S(=O)(CC(F)(F)F)c1ncccn1 [5e]: 9.2
CS(=O)(=O)c1nc2ccccc2s1 [compound 9, 2-Methysulfonylbenzothiazole, reference compound]: 9.2
CS(=O)(=O)c1ncc(Br)cn1 [4t]: 12
Cc1cc(C)nc(S(C)(=O)=O)n1 [4a]: 0.040

Q: Tell me the measured k/kref of CS(=O)(=O)c1nccc(N)n1 [4g] , please.
A: 0.92

Q: Now the compound CS(=O)(=O)c1nccc(C(=O)O)n1 [4d]
A: 0.20

Q: Now the compound O=S(=O)(c1ccccc1)c1ncccn1 [5d]
A: 1.4

Q: Now the compound Cc1cc(C)c([N+](=O)[O-])c(S(C)(=O)=O)n1 [compound 12, reference compound]
A: 0.11

Q: Now the compound COc1ccnc(S(C)(=O)=O)n1 [4b]
A: 0.18

###

experiment: Hydrolytic stability in KPi buffer without thiol (NMR); assay type: physicochemical; conditions: pH 8.2; over 12 hours; 50 mM KPi; footnote a: crashing out of solution, no degradation product
Property: % degradation; scope: individual compounds
Report only the number, with the unit % understood.

Study these solved cases before continuing.
CS(=O)(=O)c1nccc(C(F)(F)F)n1: 65
CS(=O)(=O)c1ncc(-c2ccccc2)cn1: 78

// moving on: another record for % degradation
Q: Tell me the measured % degradation of O=S(=O)(Oc1c(F)c(F)c(F)c(F)c1F)c1ncccn1 , please.
A: 100

###

test: GSH arylation rate constants (NMR; UV-vis for fast warheads); assay type: physicochemical; settings: pH 7.0; ratio to rate constant of 4q; acceleration (+) or deceleration (-)
Measured Endpoint: k change (vs ref)

Study these solved cases before continuing.
CS(=O)(=O)c1ncc(Br)cn1: +12 fold
CS(=O)(=O)c1ncc([N+](=O)[O-])cn1: +1,880 fold
COC(=O)c1cnc(S(C)(=O)=O)nc1: +396,000 fold
O=[N+]([O-])c1ccc(S(=O)(=O)c2ncccn2)cc1: +12 fold
O=S(=O)(CC(F)(F)F)c1ncccn1: +9 fold

Q: Tell me the measured k change (vs ref) of O=S(=O)(c1ccccc1)c1ncccn1 , please.
A: ≈

Q: Now the molecule O=S(=O)(Oc1c(F)c(F)c(F)c(F)c1F)c1ncccn1
A: +960 fold

###

Target: FGE-C341S (Homo sapiens, UniProt Q8NBK3, C341S)
Construct: His7 (C); made in house; host or cells: High Five insect cells (baculovirus, pAcGP67B-His7)
Assay: Differential scanning fluorimetry (DSF)
Assay type: binding
Details: 100 μM compound; 10 µM FGE; read-out: Protein thermal stability ΔTm
Excerpt: We also probed the general effect of 2-SPs on protein stability by using differential scanning fluorimetry (DSF). […] Mutants of the 25 kDa DNA-binding domain of the tumor suppressor p53 are notorious for their reduced thermal stability and denaturation/aggregation propensity.[37] The 56 kDa armadillo domain (ARD) of β-catenin mediates canonical Wnt signaling and plays a central role in embryogenesis and tissue homeostasis.[38] […]
Measured Endpoint: ΔTm at 100 µM (°C)
Report only the number, with the unit °C understood.

Study these solved cases before continuing.
CC(C)(C)S(=O)(=O)c1ncccn1: -0.2
O=S(=O)(CC(F)(F)F)c1ncccn1: -0.6
CS(=O)(=O)c1ncc(C(F)(F)F)cn1: -0.6
COc1ccnc(S(C)(=O)=O)n1: 0
Cc1cc(C)nc(S(C)(=O)=O)n1: 0

// moving on: another record for ΔTm at 100 µM
Q: Tell me the measured ΔTm at 100 µM of COc1cc(OC)nc(S(C)(=O)=O)n1 , please.
A: 0
